- EXPERIMENTAL_TARGET: platelet-derived growth factor-BB (PDGF-BB) (human) (UniProt P01127)
- Sequence (P01127 82-190 limits assumed): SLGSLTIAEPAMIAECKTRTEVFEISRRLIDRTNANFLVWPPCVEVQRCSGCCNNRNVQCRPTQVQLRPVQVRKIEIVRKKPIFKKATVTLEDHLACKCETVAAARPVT
- ASSAY_EXPLANATION: equilibrium binding
MEASURE_NAME: Kd (nM)
Express the result in nM but write the number alone.

Task item: Which Kd value belongs to QPSHISKYILRWRPKNSVGRWKEAT [peptide 1 (FN634-658) …] ?
Reply: 250
